# Measured Target: Recombinant BTK^WT kinase (Homo sapiens)
# Sequence (Q06187 whole entry): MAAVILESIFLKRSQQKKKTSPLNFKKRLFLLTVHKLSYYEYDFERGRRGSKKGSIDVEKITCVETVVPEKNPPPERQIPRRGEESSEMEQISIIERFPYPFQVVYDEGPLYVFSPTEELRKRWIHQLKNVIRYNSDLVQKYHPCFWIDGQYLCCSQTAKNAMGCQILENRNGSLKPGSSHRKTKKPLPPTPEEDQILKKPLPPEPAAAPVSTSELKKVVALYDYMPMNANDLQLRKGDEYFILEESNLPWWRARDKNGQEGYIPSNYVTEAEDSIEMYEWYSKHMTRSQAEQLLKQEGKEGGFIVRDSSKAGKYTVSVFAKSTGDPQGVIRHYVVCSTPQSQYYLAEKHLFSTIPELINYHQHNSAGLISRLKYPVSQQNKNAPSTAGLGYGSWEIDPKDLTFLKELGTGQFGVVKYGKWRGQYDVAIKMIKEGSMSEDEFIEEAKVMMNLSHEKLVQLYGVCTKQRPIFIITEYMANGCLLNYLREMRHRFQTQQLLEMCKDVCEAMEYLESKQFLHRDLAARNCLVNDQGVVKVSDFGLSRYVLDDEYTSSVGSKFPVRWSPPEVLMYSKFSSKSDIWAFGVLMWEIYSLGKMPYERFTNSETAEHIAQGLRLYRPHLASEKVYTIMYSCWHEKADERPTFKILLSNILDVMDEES
# Experiment Description: BTK WT binding affinity (LanthaScreen TR-FRET)
# Test Parameters: Kinase Tracer 236, 5 h incubation
pIC50: −log10 of the molar value.
Measured pIC50 of individual entries

Recorded pIC50, per entry:
The reported value for COc1ccccc1C(=O)NCc1ccc(-c2nn(C3CN(C)CC3(F)F)c(N)c2C(N)=O)cc1F (stereo not shown) in terms of pIC50 is 7.00 to 8.00

Recorded pIC50 (molecule COc1ccccc1C(=O)NCc1ccc(-c2nn(C3CCOCC3C)c(N)c2C(N)=O)cc1 (mixture of isomers) ): > 8.00

pIC50 in this record for COc1ccc(F)cc1C(=O)NCc1cc(F)c(-c2nn(C3CCOCC3)c(N)c2C(N)=O)cc1F : > 8.00

// next item, pIC50 requested
Documented pIC50 of COc1ccccc1C(=O)NCc1ccc(-c2nn(C3CN(C)CC3(F)F)c(N)c2C(N)=O)cc1 (stereo not shown) : > 8.00
